Where these numbers come from: patent US20190023807A1

TARGET_DESC: cynomolgus PSMA, full-length, expressed on CHO cells (cynomolgus, UniProt A0A2K5VNZ0 1-750)
TEST_DETAILS: cell-based or functional assay
Reported His-ZAP cell killing, cyno PSMA Average EC50 values follow for various binders
All answers are understood in pM, so give the number only.

BINDER | UNIT_TEXT | OBS_VALUE
1.1-6GS-2.15 (bispecific antibody, not shown: small tags and cut ends) EVQLLESGGGLVQPGGSLRLSCAASGFSFSSYAMSWVRQAPGKGLEWVSSIGENDGTTDYADSVKGRFTISRDNSKSMLYLQMNSLRVEDTAVYYCVKDGVHWGQGTLVTVSSGGGGSGGGGSGGGGSGGGGSGGGGSGGGGSEVQLVESGGGVVQPGRSLRLSCAASGFSFSGYGLHWVRQAPGKGLEWVAYISYDKSNKYYADKVKGRFTISRDNSKNTLYLQMNSLRAEDTAVYYCAKDPAWGLRLGESSSYDFDIWGQGTMVTVSS | pM | 8.6

Now take the following binder into account.
Note to self: His-ZAP cell killing, cyno PSMA Average EC50 recorded for 1.16-6GS-2.22 (bispecific antibody, not shown: small tags and cut ends) EVQLLESGGGLVQPGGSLRLSCAASGFSFSSYALSWVRQAPGKGLEWVSSIGENNHTTDYADTVKGRFTISRDNSKNTLYLQMNSLRVEDTAVYYCVKDGVHWGQGTLVTVSSGGGGSGGGGSGGGGSGGGGSGGGGSGGGGSEVQLVESGGGVVQPGRSLRLSCAASGFSFSGYGTHWVRQAPGKGLEWVAYISYDGSNKYYAAPVKGRFTISRDNSKNTLYLQMNSLRAEDTAVYYCAKDAAWGLRLGESSSYDFDIWGQGTMVTVSS was 11
